Test system: MS2 coat protein
Experiment: apparent KD of MS2 coat protein; higher = weaker reporter binding
Experimental Parameters: Eterna round: R107; input ligand: arginine 13.2 mM
Reported apparent KD of MS2 coat protein values for a set of sequences
Measure: apparent KD of MS2 coat protein (nM)

Residue String | Experimental Target | Measure | Result Value
UCGUUUGAGGCGGCCGCCACUGGUCUCAUGGUCAACAUGAGGAUCACCCAUGUAUCUUUGCUAAGCAGGACCGGGCCUCGAGCGA [#19 Exclusion Tryptophan B] | MS2 coat protein | apparent KD of MS2 coat protein | 43.5
AUACAUGAGGAUCACCCAUGUAUAGAUGAAGGAGCGACCAGAGGGUCAGGUAGGUCGCAUCACAUGAGGAUCACCCAUGUACUUA [DOUBLE!!! :-D #9] | MS2 coat protein | apparent KD of MS2 coat protein | 27.1
GAGCUGAUGUAGAGCUUAUAUAAGAGAGAUACCAGUACAGAAAUGUACCCUUGGCAGCUCAACUUUACAUGAGGAUCACCCAUGU [Ex Theophylline A 20] | MS2 coat protein | apparent KD of MS2 coat protein | 12.3
CUCAUCCACGCGGCCGCCACUAUAUUGUGGUGCGUAUGUGUCGUAAUACAUGAGGAUCACCCAUGUAGGACCGGGCGUGGAUGAG [#10 Exclusion Tryptophan B] | MS2 coat protein | apparent KD of MS2 coat protein | 10.9
GCUAGGUCUACGGCCGCCACUAGACGUGGGUAAGACAUGAGGAUCACCCAUGUACUACGGGCGAAUAGGACCGGGUAGACCUAGC [SSTB NP+V+V2 #14 Same Structure] | MS2 coat protein | apparent KD of MS2 coat protein | 173
CUUGAGACAUGAGGAUCACCCAUGUCCGAAGGAGCGUGCGAAAGCACAGGUAGGUCGCGGACGUGAGGAUCUCCCAUGUGAGCGA [#25 Exclusion - Arginine A] | MS2 coat protein | apparent KD of MS2 coat protein | 14.3
GUACCGUAAACGGCCGCCACUGACAUGAGGAUCACCCAUGUGCUGGUGGUGCACAACCUCAGGUUCAGGACCGGGUUUCCGAGCU [theeternabot_exclusion_MS2_Trp_B_50] | MS2 coat protein | apparent KD of MS2 coat protein | 23
AACAUACAAUAUUAGGUGGAUAUAAGGCGGCGAGGACCGGUACGGCCGCCACUCGCGUACAUGAGGAUCACCCAUGUCUGAAACU [Same State - Tryptophan A (Freestyle 4)] | MS2 coat protein | apparent KD of MS2 coat protein | 16.6
GCCGGACUUUCGGCCGCCACUGAGAGAGUCGUGUGAACAUGAGGAUCACCCAUGUAAUAUAUAUACAGGACCGGGAGGGUUCGGC [4.S] | MS2 coat protein | apparent KD of MS2 coat protein | 10.5
GGGCCUACCUGAAGGAGCGACAUGAGGAUCACCCAUGUCUCCCGUUAUGGGAGUUCUUUAGGUCAGGUAGGUCGCAGGUAGGGCC [#1 Exclusion - Arginine B Attempt #4 (Inspired by Omei)] | MS2 coat protein | apparent KD of MS2 coat protein | 15.3
GGGCGCUAUCCCGCGAGGGAUAGCGUUCGACGAGGACCGGUACGGCCGCCACUCGAACGAGUGGUGACAUGAGGAUCACCCAUGU [Naa] | MS2 coat protein | apparent KD of MS2 coat protein | 28.7
